System: Klebsiella aerogenes DSM 30053
Assay: fold change of Histamine concentration vs plate DMSO controls (fold change (ratio)); higher = more amine produced, active = hit call of the paper (significant change in both replicates, either direction)
Conditions: incubation time: 27 h, anaerobic, 37 °C
READOUT: fold change of Histamine concentration
Give a plain numeric answer without units written out.

Request: Recorded fold change of Histamine concentration for O=C(NCC(O)CO)c1c(I)c(C(=O)NCC(O)CO)c(I)c(N(CCO)C(=O)CO)c1I (stereo not drawn) [Ioversol] (20 µM) , please?
Result: 0.997

Request: For CN(C)CCOC(C)(c1ccccc1)c1ccccn1 (stereo not drawn) [Doxylamine succinate] (20 µM) , what is its reported fold change of Histamine concentration?
Result: 1.01

Request: If you can, please state the reported fold change of Histamine concentration value of CNCCC=C1c2ccccc2C=Cc2ccccc21 [Norcyclobenzaprine] (20 µM) .
Result: 0.997

====

Test system: Clostridium sporogenes DSM 1664
Assay: fold change of Tryptamine concentration vs plate DMSO controls (fold change (ratio)); higher = more amine produced, active = hit call of the paper (significant change in both replicates, either direction)
Details: incubation time: 27 h, anaerobic, 37 °C
Counter-ions that a name gives are not always drawn.
Assign fold change of Tryptamine concentration to each entry below.

Request: # value lookup — system Clostridium sporogenes DSM 1664, readout fold change of Tryptamine concentration, item CCn1cc(C(=O)O)c(=O)c2ccc(C)nc21 [Nalidixic acid sodium salt] (20 µM)
Result: 0.991 (inactive)

Request: Form entry - test system: Clostridium sporogenes DSM 1664; read-out: fold change of Tryptamine concentration; molecule: NS(=O)(=O)c1cc(C2(O)NC(=O)c3ccccc32)ccc1Cl (stereo not drawn) [Chlorthalidone] (20 µM)
Result: 1 (inactive)

Request: Please provide the recorded fold change of Tryptamine concentration for S=c1[nH]cnc2nc[nH]c12 [Mercaptopurine] (20 µM) , tested on Clostridium sporogenes DSM 1664.
Result: 1.01 (inactive)

====

Tested on: Escherichia coli IAI1
Test: fold change of Putrescine concentration vs plate DMSO controls (fold change (ratio)); higher = more amine produced, active = hit call of the paper (significant change in both replicates, either direction)
Conditions: incubation time: 27 h, anaerobic, 37 °C
Structures can show the parent of a compound that is named as a salt.
READOUT: fold change of Putrescine concentration
A bare number is all that is needed in reply.

Request: Return reported fold change of Putrescine concentration; argument: CCCCNc1c(C(=O)OCC)c(C)nc2c1cnn2CC [Tracazolate hydrochloride] (20 µM)
Result: 1.01

Request: Quick check: fold change of Putrescine concentration of CCc1ccc(CCOc2ccc(CC3SC(=O)NC3=O)cc2)nc1 (centres undefined) [Pioglitazone] (20 µM) ?
Result: 1.02

Request: Dear colleague, I am looking for the recorded fold change of Putrescine concentration of the following molecule: Cc1nc(C)c(Cl)c(O)c1Cl [Clopidol] (20 µM)
Result: 1.02

Request: Name the recorded fold change of Putrescine concentration for CCCCC1=NC2(CCCC2)C(=O)N1Cc1ccc(-c2ccccc2-c2nnn[nH]2)cc1 [Irbesartan] (20 µM) .
Result: 1.02

Request: Which fold change of Putrescine concentration reading was recorded for the molecule O=S(=O)(O)c1cc(O)ccc1O [Ethamsylate diethylammonium salt] (20 µM) ?
Result: 0.989

Request: For the molecule C[C@@H](O)[C@H]1C(=O)N2C(C(=O)O)=C(SCCNC=N)C[C@H]12 [Imipenem] (20 µM) , what fold change of Putrescine concentration is on record?
Result: 0.971

Request: GET /values?readout=fold change of Putrescine concentration&item= CC(C)(O)c1ccccc1CC[C@@H](SCC1(CC(=O)O)CC1)c1cccc(/C=C/c2ccc3ccc(Cl)cc3n2)c1 [Montelukast] (20 µM)
Result: 0.994

Request: I'd like to know its fold change of Putrescine concentration. The molecule in question is CC(C)(C)NCC(O)COc1cccc2c1CCC(=O)N2 (centres undefined) [Carteolol hydrochloride] (20 µM)
Result: 1.01

Request: fold change of Putrescine concentration for CC(C(=O)O)c1cccc(Oc2ccccc2)c1 (centres undefined) [Fenoprofen calcium salt dihydrate] (20 µM) ?
Result: 0.976

Request: Tell me the measured fold change of Putrescine concentration of COc1cc2nc(N3CCN(C(=O)C4COc5ccccc5O4)CC3)nc(N)c2cc1OC (centres undefined) [Doxazosin mesylate] (20 µM) , please.
Result: 1.02

Request: Reported fold change of Putrescine concentration, molecule OCCOCCN1CCN(C(c2ccccc2)c2ccc(Cl)cc2)CC1 (centres undefined) [Hydroxyzine dihydrochloride] (20 µM) : ____
Result: 0.98

Request: Entry C[C@H](CCC(=O)O)[C@H]1CC[C@H]2[C@@H]3[C@@H](O)C[C@@H]4C[C@H](O)CC[C@]4(C)[C@H]3CC[C@]12C [Urosiol] (20 µM) has what fold change of Putrescine concentration?
Result: 1.01

Request: # fold change of Putrescine concentration lookup, item CCCCNC(=O)NS(=O)(=O)c1ccc(C)cc1 [Tolbutamide] (20 µM)
Result: 0.978

Request: Given O=C1CC[C@@H](C(=O)N2CSC[C@H]2C(=O)O)N1 [Pidotimod] (20 µM) , state its recorded fold change of Putrescine concentration.
Result: 0.979
